target: Dual specificity tyrosine-phosphorylation-regulated kinase 2 (Homo sapiens); test: Percentage DYRK2 activity remaining in the presence of 0.1uM inhibitor
measured.parameter: Activity (%)
Express the result in % but write the number alone.

Some solved entries appear below for comparison.
# compound, Activity / %
measured = [
    ("CC(C)CCN1c2nc(Nc3cc(F)c(O)c(F)c3)ncc2N(C)C(=O)C1C (stereo not given)", 91),
    ("CC(C)[C@H](CO)Nc1nc(Nc2cccc(Cl)c2)c2ncn(C(C)C)c2n1", 91),
    ("CN(C)C[C@@H]1CCn2cc(c3ccccc32)C2=C(C(=O)NC2=O)c2cn(c3ccccc23)CCO1", 85),
    ("O=C(NCCCNc1nc(Nc2cccc(NC(=O)N3CCCC3)c2)ncc1I)c1cccs1", 76),
]

Below: the item to evaluate.
q: Requested field: Activity. Item: `Cn1cc(C2=C(c3cn(CCCSC(=N)N)c4ccccc34)C(=O)NC2=O)c2ccccc21`
a: 90
